Hello, the source for this data is paper PMC12040169, in case you need it.

- Assay Method Text: in vitro
- Design: Viability of infected HeLa host cells, resazurin conversion, bulk resorufin fluorescence relative to DMSO
- Details: human, hela cells; bulk resorufin, mean of 3
Quantity Name: viability at 28.5 h, 30 µM (%)

O=C(CSc1nnc(-c2cccnc2)o1)c1ccccc1 [c35e]
88.7
O=C(NCCc1c[nH]c2ccc(Cl)cc12)c1c(F)ccc(Cl)c1F [c42e]
107
COc1c(Br)cc2c(cc(C)n2-c2ccccc2)c1OCC(O)CNC(C)C (stereo not drawn)
0
O=C(CC1SC(Nc2ccc(O)cc2)=NC1=O)c1ccccc1 (stereo not drawn) [c13e]
83.8
COc1cccc(CNC(C(=O)O)c2ccc3c(c2)OCO3)c1 (stereo not drawn) [c40e]
89.7
Cc1ccc2[nH]c3c(c2c1)CCOC31CCN(Cc2ccccc2-c2ccccc2)CC1 [c22e]
70.7
CCOc1ccsc1C(=O)NC1Cc2ccccc2C1 [c16e]
87
O=C(N/N=C/c1ccc(Sc2cccc3cccnc23)o1)c1cccc(F)c1 [c10e]
81.1
CN(C(=O)c1ccc(Cl)c(Cl)c1)[C@H]1CCC[C@H]1N1CCCC1 [c12e]
82.8
O=C1Oc2nc3ccccc3cc2CN1C1CC1
46.5
FC(F)(F)CCN1CCC2(CC1)NCCc1c2[nH]c2ccc(Cl)cc12 [c34e]
71.8
N#Cc1c(Nc2cccc(C(F)(F)F)c2)sc(C(=O)c2ccc3c(c2)OCO3)c1N
62.5
CCC(c1ccc(F)cc1)N(C)C(=O)Cn1cc(C(=O)NC2CCCCC2)ccc1=O (stereo not drawn) [c44e]
87.2
O=C(CC1CCN(CCc2ccccc2)CC1)Nc1cccc(-n2cccn2)c1
87.2
CC(=O)N1CCc2sccc2C1c1ccccc1NCc1ccoc1 (stereo not drawn) [c28e]
83
CCCCc1ccc(NC(=N)Nc2nc(C)cc(C)n2)cc1 [c33e]
112
O=[N+]([O-])c1ccc(-n2cnc3ccccc32)c([N+](=O)[O-])c1 [c41e]
96.3
O=C(Nc1ccc(F)c(F)c1)NC1CCC2CN(CCOc3ccccc3)CC2C1 (stereo not drawn)
102
CC(Cc1nc(-c2nccn2C)cs1)n1cc(Cl)cn1 (stereo not drawn) [c14e]
110
CNC(=S)N1CCN(c2nsc3ccccc23)CC1
76
CCCN(CCC)CCc1cccc2c1CCN2C(=O)c1cc2ccccc2s1 [c15e]
91.3

====

- Assay Method Text: in vitro
- Details: human, hela cells, % viability
Quantity Name: viability at 28.5 h, 10 µM (%)

CC1(C)CC(NC(=O)C23CCC(C)(c4nc5ccccc5nc42)C3(C)C)CC(C)(C)N1 (centres unmarked)
99.3
COc1cc([N+](=O)[O-])ccc1NC(=S)Nc1cccc(S(=O)(=O)N2CCOCC2)c1
96.9
CN(c1ncc(Br)cc1C(=O)Nc1ccc(C(F)(F)F)cc1)S(C)(=O)=O
93.3
CC(C)C(=O)Nc1cc2cccnc2nc1-c1ccsc1
87.8
COc1cc(C(=O)ON=C(N)Cc2cccc3ccccc23)cc(OC)c1OC
95.9
Cc1nc(N2CCN(C)CC2)ncc1C(=O)NCCSc1cnn[nH]1
88.2
Oc1cc2nnnn2nc1-c1ccccc1
101
Cc1cc(COC(=O)N2CCCC(F)(F)C2)cc(C)n1
125
CCn1cc(NC(=O)CC2CCN(Cc3cccc(C(F)(F)F)c3)CC2)cn1
89.9
COCc1ccc(CN2CCC3(CCc4ccccc4C(=O)N3)C2)o1 (centres unmarked)
94.3
CN(C)CCNC(=O)c1sc2ccccc2c1CC1CCCCCN1C(=O)C1CCC1 (centres unmarked)
105
O=C(O)CSc1nccn1Cc1ccccc1
103
O=c1c(N2CCCNCC2)nccn1CCOc1ccc(Br)cc1 [CBK028613T]
95
COc1ccc(Br)cc1S(=O)(=O)Nc1c(C(=O)O)[nH]c2ccccc12
97.5
Cc1nn(Cc2cccc3ccccc23)c(C)c1NC(=O)c1cccnc1
90.6
Cc1cc(Cl)ccc1OCCCc1nnc(S)n1C
85.1
COc1cccc(C(=O)/C=C\Nc2ccc(S(=O)(=O)Nc3onc(C)c3C)cc2)c1
93.4
Cc1ccc(S(=O)(=O)NCCn2cnc([N+](=O)[O-])n2)cc1
96.3
CCN(C)C(=O)N1CCN(CCCC(c2ccc(F)cc2)c2ccc(F)cc2)CC1 [CBK024910C]
90.6
O=C(C1CCCC1)N1CCCC(c2cc3cccnc3[nH]2)C1 (centres unmarked)
105

====

- Test system: C. trachomatis L2/434/Bu expressing GFP (CTL2-GFP)
- Construct: L2/434/Bu GFP intracellular growth in HeLa cells
- Assay Method Text: microbe, parasite or virus in culture
- Parameters: C. trachomatis total inclusion area by high-content imaging, normalised to DMSO
- Details: Chlamydia trachomatis, HeLa, 28.5 h; total inclusion area; read-out: % of control remaining
Mark Yes only when activity at 5 µM stays strictly below 30%. Values equal to the cut-off are No.

OCCNc1nc(Nc2ccc(Br)cc2)nc2ccccc12 [CBK266724C]
Yes
O=C(Nc1cc(Cl)nc(Cl)c1)N(Cc1ccc(-c2ccccc2)cc1)CC1CCNCC1
No
CN(C)[C@H]1CCC[C@@H]1C(=O)Nc1ccc(Cl)c(Cl)c1
No
CCC(c1ccc(F)cc1)N(C)C(=O)Cn1cc(C(=O)NC2CCCCC2)ccc1=O (stereo not drawn)
Yes
O=C(NCC1CC1)c1ccc(N2CCN(C(=O)c3ccccc3C(F)(F)F)CC2)nn1
No
Cc1cc(Br)ccc1S(=O)(=O)N(C)c1ccc(N2CCNCC2)c2ccccc12 [CBK016170C]
Yes
Cc1cccc(OCC(C)NC(=O)NCCc2cnn(C)c2)c1 (stereo not drawn)
No
Cc1noc(NS(=O)(=O)c2ccc(N/C=C\C(=O)c3cccnc3)cc2)c1C
Yes
O=C1CC[C@@H](NCc2cccs2)[C@H](c2cc(F)cc(F)c2)N1
No

====

viability at 28.5 h, 10 µM reference
- Assay Method Text: in vitro
- Details: human, hela cells, % viability
Quantity Name: viability at 28.5 h, 10 µM (%)

CC(=O)Nc1ccc(-c2ccc(C(=O)N3CCC(Sc4ccccc4)CC3)cn2)cc1
99.6
O=C(COc1ccc(S(=O)(=O)N2CCc3ccccc32)cc1Cl)NCc1ccco1
102
CCCC(=O)NCC1Cc2cc(F)cc(-c3ccc(C(C)=O)s3)c2O1 (stereo not shown)
90.3
CC1CCCCC12NC(=O)N(Cc1nnc(-c3cccs3)o1)C2=O (stereo not shown)
82.9
CCc1ccc(C(=O)Nc2ccc(NC(C)=O)cc2C(F)(F)F)cc1
84.1
CC(C)(C)c1ccc(C(=O)CC(C(=O)O)N2CCN(c3cccc(Cl)c3)CC2)cc1 (stereo not shown)
90.9
Cc1ccc2cccc(OS(=O)(=O)c3ccc(Cl)c(C)c3Cl)c2n1
53.7
COCCn1cnnc1CCNC(=O)Cc1cccc(O)c1
112
CC(O)c1cccc(NC(=O)CCC(=O)O)c1 (stereo not shown)
94.1
Cn1cnnc1SCC(=O)N1CCc2ccccc21
82.7
O=C(CN(c1ccc2c(c1)OCCO2)S(=O)(=O)c1ccccc1)N1CCN(Cc2ccccc2)CC1
113
O=C(CC(CN1CCN(CCO)CC1)C(=O)O)Nc1ccccc1F (stereo not shown)
86
CCCN1CCC(NC(=O)Cn2c(C3CC3)nc3ccccc32)CC1
89.2
COC1CCCC(C(=O)N2CCC(c3onc4c3CCCC4)CC2)C1 (stereo not shown)
94.3
Cc1nc(-c2n[nH]cc2-c2ccccc2F)sc1CCN
102
CC/C(=C\c1sc2ccc3ccccc3c2[n+]1CCCS(=O)[O-])SC
107
C/C=C/c1ccc(OCCNC2CCCC2)c(OC)c1 [CBK266399G]
93.9
O=C(Nc1cccc(-c2nnc3n2CCCCC3)c1)[C@@H]1CCCN1C(=O)c1cccs1
109
CC[C@H]1CN(C(=O)N2CCOCC2)CC[C@H]1CC(=O)NCCOC
100
CN(C)C(=O)CCNC(=O)c1ccc2c(c1)nc(N1CC[C@H](O)C1)n2C
92.4
CN1CCN(c2cc(-c3cccc4cccnc34)nc3ccnn23)CC1
90.8
CCN1CCC[C@@H]1CNC(=O)c1ccncc1
113
Cc1nc(C2CCCCN2C(=O)COc2ccccc2)ncc1C(=O)Nc1ccc(F)cc1 (stereo not shown)
98.6
CCn1c(SCC(=O)N2CCN(c3ccccc3)CC2)nnc1-c1ccc(N)cc1
103
COc1ccc(NC(=O)C2CN(S(=O)(=O)c3ccccc3)CCN2S(=O)(=O)c2ccccc2)cc1 (stereo not shown)
98.5
CCc1nc2ccc(C(=O)NCC3CCCCC3)cn2c1N(C)Cc1ccc(OC)cc1
91.1
COC(=O)C1CC(O)CN1S(=O)(=O)c1cccs1 (stereo not shown)
87
COc1ccc(S(=O)(=O)NC[C@H]2C[C@@H]3CC[N@]2C[C@@H]3CN2CCOCC2)cc1
87.7
CCC1CCCCN1C(=O)Cc1c(C)nc(-c2cccnc2)[nH]c1=O (stereo not shown)
91.6
O=C(c1cccs1)N1CCC(c2nnc3n2CCCCC3)CC1
95.7
O=C(c1cccs1)N1C[C@@H]2C[C@H](C1)c1c(-c3cncnc3)ccc(=O)n1C2
90.7
CN1C2CCC1CC(OC(c1ccccc1)c1ccccc1)C2 (stereo not shown) [CBK011710G]
99.6
CN1C(=O)NC(c2ccc(Br)cc2)C2=C1CN(c1cccc(C(=O)O)c1)C2=O (stereo not shown)
84.3
O=C(Nc1cc(Oc2cccnc2)cc([N+](=O)[O-])c1)c1cc2nc(-c3ccco3)cc(C(F)(F)F)n2n1
110
O=C(O)c1ccccc1-c1ccccc1C(=O)Nc1cccc(-c2nc3ccccc3o2)c1
103
COC(=O)c1sccc1OCc1nnc(-c2ccc(Cl)c(Cl)c2)o1
96.5
COC(=O)c1ccc(N2CCN(Cc3cnoc3C)C(C)C2)cc1 (stereo not shown)
109
